Tested on: Phakopsora pachyrhizi, strain with amino acid substitution F129L in the mitochondrial cytochrome b protein
experiment: Protective control of soybean rust on soybeans (PHAKPA P6)
Assay type: in vivo
measurement-setup: Table 1; protective P6; 16 ppm; F129L strain
readout-label: % PHAKPA (F129L) Disease level, P6 at 16 ppm (%)
One number for each entry, in %.

Field: example entries. Status: answers known.
CON=C(C)c1ccc(C(C)=NOCc2c(C)cccc2C(=NOC)C(=O)OC)c(OC(F)(F)F)c1: 57
CO/N=C(/C(=O)OC)c1cccc(C)c1CO/N=C(\C)c1ccc(-c2ccc(F)cc2)cc1C(F)(F)F: 40
CO/C=C(/C(=O)OC)c1cccc(C)c1CO/N=C(\C)c1ccccc1OC(F)(F)F: 10

Dear reader, for each entry below, please note its % PHAKPA (F129L) Disease level, P6 at 16 ppm.
1. CNC(=O)/C(=N/OC)c1cccc(C)c1CO/N=C(\C)c1ccc(-c2ccccc2)cc1C(F)(F)F
2. CNC(=O)/C(=N/OC)c1cccc(C)c1CO/N=C(\C)c1ccc(Cl)c(F)c1OC(F)(F)F
3. CO/N=C(/C(=O)OC)c1cccc(C)c1CO/N=C(\C)c1ccc(-c2ccccc2)cc1C(F)(F)F
4. CO/C=C(/C(=O)OC)c1cccc(C)c1CO/N=C(\C)c1ccc(OC(F)(F)F)cc1Cl
5. COC=C(C(=O)OC)c1cccc(C)c1CON=C(C)c1cc(F)c(F)cc1CC(F)(F)F
6. CNC(=O)/C(=N/OC)c1cccc(C)c1CO/N=C(\C)c1ccc(OC)cc1OC(F)(F)F

1: 15; 2: 9; 3: 15; 4: 0; 5: 27; 6: 1
